FYI, the data here is from the supplement of paper PMC9112550.

System: Escherichia coli TOP10
Assay: shrunken log2 fold change of peptide-encoding DNA abundance (4.5 h post-induction vs induction); higher = less antimicrobial activity (less host growth inhibition)
Details: time post-induction: 4.5 h; library: site-saturation at positions 5, 18, 19, 20
Provide the reported shrunken log2 fold change of each item.
One number for each entry.

# annotated cases, reported shrunken log2 fold change shown
>>> reportedvalue("RRIRWRPPRLPRPRPRPCPLPRP")
-0.247
>>> reportedvalue("RRIRYRPPRLPRPRPRPLDPPRP")
-0.307
>>> reportedvalue("RRIRARPPRLPRPRPRPVKDPRP")
0.284
>>> reportedvalue("RRIRCRPPRLPRPRPRPTWIPRP")
0.24

Record shrunken log2 fold change for all entries; do not skip any.
1. RRIRKRPPRLPRPRPRPPDVPRP
2. RRIRWRPPRLPRPRPRPRDYPRP
3. RRIRMRPPRLPRPRPRPEVCPRP
4. RRIRTRPPRLPRPRPRPRNAPRP
5. RRIRCRPPRLPRPRPRPVPSPRP

Response given:
-0.0127
-0.127
0.0476
0.0522
-0.119

Record shrunken log2 fold change for all entries; do not skip any.
1. RRIRERPPRLPRPRPRPGQDPRP
2. RRIRQRPPRLPRPRPRPEPCPRP
3. RRIRLRPPRLPRPRPRPAGSPRP
4. RRIRRRPPRLPRPRPRPWWTPRP
5. RRIRARPPRLPRPRPRPVTFPRP

Response given:
-0.0237
-0.0944
0.268
0.0815
0.0573

Record shrunken log2 fold change for all entries; do not skip any.
1. RRIRARPPRLPRPRPRPNHEPRP
2. RRIRRRPPRLPRPRPRPMPGPRP
3. RRIRNRPPRLPRPRPRPYSYPRP
4. RRIRPRPPRLPRPRPRPLCGPRP
5. RRIRYRPPRLPRPRPRPITGPRP
6. RRIRFRPPRLPRPRPRPPRTPRP
7. RRIRWRPPRLPRPRPRPWKSPRP

Response given:
[0.021, 0.243, 0.000362, 0.623, 0.0176, 0.579, 0.0574]

Record shrunken log2 fold change for all entries; do not skip any.
1. RRIRVRPPRLPRPRPRPKDAPRP
2. RRIRHRPPRLPRPRPRPHKPPRP
3. RRIRCRPPRLPRPRPRPGIQPRP
4. RRIRKRPPRLPRPRPRPANCPRP
5. RRIRVRPPRLPRPRPRPMLTPRP

Response given:
[0.0211, 0.0188, -0.248, 0.0966, -0.066]

====

Provide the reported shrunken log2 fold change of each item.
Tested on: Escherichia coli TOP10
Assay: shrunken log2 fold change of peptide-encoding DNA abundance (4.5 h post-induction vs induction); higher = less antimicrobial activity (less host growth inhibition)
Conditions: time post-induction: 4.5 h; library: site-saturation at positions 5, 18, 19, 20
Give bare numbers.

# annotated cases, reported shrunken log2 fold change shown
>>> reportedvalue("RRIRYRPPRLPRPRPRPHNAPRP")
-1.21
>>> reportedvalue("RRIRYRPPRLPRPRPRPQDRPRP")
-0.00674
>>> reportedvalue("RRIRSRPPRLPRPRPRPGKKPRP")
-0.0502
>>> reportedvalue("RRIRSRPPRLPRPRPRPMGFPRP")
-0.0207
>>> reportedvalue("RRIRWRPPRLPRPRPRPYCMPRP")
-0.401
>>> reportedvalue("RRIRFRPPRLPRPRPRPSIFPRP")
-0.579
>>> reportedvalue("RRIRSRPPRLPRPRPRPPCHPRP")
-0.0302
>>> reportedvalue("RRIRHRPPRLPRPRPRPGWKPRP")
0.0976
>>> reportedvalue("RRIRHRPPRLPRPRPRPRDDPRP")
-0.0505
>>> reportedvalue("RRIRFRPPRLPRPRPRPCKTPRP")
0.00592

Record shrunken log2 fold change for all entries; do not skip any.
1. RRIRYRPPRLPRPRPRPRANPRP
2. RRIRKRPPRLPRPRPRPRNVPRP
3. RRIRFRPPRLPRPRPRPWLWPRP
4. RRIRDRPPRLPRPRPRPKYNPRP
5. RRIRNRPPRLPRPRPRPDIMPRP
6. RRIRARPPRLPRPRPRPDIFPRP
7. RRIRWRPPRLPRPRPRPFIEPRP
8. RRIRNRPPRLPRPRPRPARKPRP

Response given:
[-0.109, 0.132, -0.052, -0.813, -0.039, 0.148, -0.441, 0.0797]

Record shrunken log2 fold change for all entries; do not skip any.
1. RRIRARPPRLPRPRPRPPYKPRP
2. RRIRTRPPRLPRPRPRPSGHPRP
3. RRIRERPPRLPRPRPRPTPVPRP
4. RRIRMRPPRLPRPRPRPGTWPRP
5. RRIRSRPPRLPRPRPRPRTPPRP
6. RRIRYRPPRLPRPRPRPHMQPRP

Response given:
0.0849
-0.17
0.059
0.043
0.502
-1.07

====

Test system: Escherichia coli TOP10
Assay: shrunken log2 fold change of peptide-encoding DNA abundance (4.5 h post-induction vs induction); higher = less antimicrobial activity (less host growth inhibition)
Conditions: time post-induction: 4.5 h; library: site-saturation at positions 5, 18, 19, 20
metric: shrunken log2 fold change
Answers are plain numbers.

# annotated cases, reported shrunken log2 fold change shown
>>> reportedvalue("RRIRPRPPRLPRPRPRPVNAPRP")
0.138
>>> reportedvalue("RRIRGRPPRLPRPRPRPYRYPRP")
0.322
>>> reportedvalue("RRIRKRPPRLPRPRPRPRSAPRP")
0.884
>>> reportedvalue("RRIRARPPRLPRPRPRPMVLPRP")
-0.118
>>> reportedvalue("RRIRLRPPRLPRPRPRPYKVPRP")
-0.756

Record shrunken log2 fold change for all entries; do not skip any.
1. RRIRKRPPRLPRPRPRPPTDPRP
2. RRIRKRPPRLPRPRPRPAVAPRP

Response given:
1. 0.544
2. 0.0118

====

System: Escherichia coli TOP10
Assay: shrunken log2 fold change of peptide-encoding DNA abundance (4.5 h post-induction vs induction); higher = less antimicrobial activity (less host growth inhibition)
Details: time post-induction: 4.5 h; library: site-saturation at positions 5, 18, 19, 20
metric: shrunken log2 fold change
One number for each entry.

>>> reportedvalue("RRIRFRPPRLPRPRPRPSDTPRP")
-0.308
>>> reportedvalue("RRIRNRPPRLPRPRPRPFGDPRP")
0.0215
>>> reportedvalue("RRIRRRPPRLPRPRPRPFWHPRP")
-0.0292
>>> reportedvalue("RRIRMRPPRLPRPRPRPWNYPRP")
-0.203
>>> reportedvalue("RRIRQRPPRLPRPRPRPCADPRP")
-0.116
>>> reportedvalue("RRIRIRPPRLPRPRPRPTYMPRP")
-0.707
>>> reportedvalue("RRIRTRPPRLPRPRPRPCTFPRP")
-0.241
>>> reportedvalue("RRIRHRPPRLPRPRPRPRWSPRP")
0.00212
>>> reportedvalue("RRIRWRPPRLPRPRPRPETQPRP")
0.0616
>>> reportedvalue("RRIRERPPRLPRPRPRPNQSPRP")
-0.236

Record shrunken log2 fold change for all entries; do not skip any.
1. RRIRQRPPRLPRPRPRPQKCPRP
2. RRIRKRPPRLPRPRPRPNYKPRP

Response given:
1. -0.00409
2. -0.507

Record shrunken log2 fold change for all entries; do not skip any.
1. RRIRQRPPRLPRPRPRPMHSPRP
2. RRIRARPPRLPRPRPRPQNFPRP

Response given:
[-0.165, -0.0953]

====

Tested on: Escherichia coli TOP10;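 also: peptides expressed intracellularly from a pBAD plasmid library in pooled LB shake-flask culture, induced with 0.3% L-arabinose, DNA abundance read by NGS, three biological replicates, DESeq2 with apeglm shrinkage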
Experiment: shrunken log2 fold change of peptide-encoding DNA abundance (4.5 h post-induction vs induction); higher = less antimicrobial activity (less host growth inhibition)
Details: time post-induction: 4.5 h; library: site-saturation at positions 5, 18, 19, 20
metric: shrunken log2 fold change
Answers are plain numbers.

Record shrunken log2 fold change for all entries; do not skip any.
1. RRIRMRPPRLPRPRPRPDMMPRP
2. RRIRIRPPRLPRPRPRPECFPRP
3. RRIRARPPRLPRPRPRPQMHPRP
4. RRIRPRPPRLPRPRPRPPIDPRP
5. RRIRPRPPRLPRPRPRPQMFPRP
6. RRIRHRPPRLPRPRPRPWIEPRP
7. RRIRLRPPRLPRPRPRPRPKPRP
8. RRIRYRPPRLPRPRPRPIKKPRP

Response given:
1: 0.187; 2: 0.042; 3: 1.05; 4: 0.216; 5: 0.161; 6: 0.0254; 7: 0.294; 8: 0.017

Record shrunken log2 fold change for all entries; do not skip any.
1. RRIRDRPPRLPRPRPRPRYQPRP
2. RRIRFRPPRLPRPRPRPMCQPRP
3. RRIRCRPPRLPRPRPRPWFKPRP
4. RRIRYRPPRLPRPRPRPPKMPRP
5. RRIRYRPPRLPRPRPRPIDAPRP

Response given:
0.204
-0.123
-0.582
0.28
-0.284
